B1: library; a variant is named by its letters at N, in order (parent)
chain: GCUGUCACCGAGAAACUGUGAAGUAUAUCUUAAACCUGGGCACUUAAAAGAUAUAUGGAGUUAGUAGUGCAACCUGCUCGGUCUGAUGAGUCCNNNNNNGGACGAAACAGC

Variants of: B1
Test: FACS-Seq fitted mean relative fluorescence mCherry/BFP without ligand (log10 relative fluorescence); HEK293T; ligand: cyclic di-GMP (c-di-GMP-II aptamer); higher = higher reporter protein expression
Settings: ligand present: no
This listing pairs variants with measured FACS-Seq fitted mean (log10).
measurement-type: FACS-Seq fitted mean (log10)

• GAAAUU = -0.0957
• GGUUCC = 0.28
• CGAGAA = 0.00961
• AAAAGG = -0.489
• CGCAAA = -0.531
• GACUUG = -0.257
• AGCGUG = -0.586
• CAAAUU = -0.59
• UGGUGA = -0.506
• CCCCAU = -0.0362
• UGCGAG = -0.503
• CGGAAU = -0.644
• AAAUGA = -0.56
• AUUGCC = -0.0783
• CGCUUA = -0.545
• UUUCUU = 0.255
• CAAACA = -0.651
• GUCCUG = -0.102
• UCGAUA = -0.515
• GCCCCA = -0.109
• CGCUGU = 0.3
• CUAAUG = -0.485
• GCCAUA = 0.0302
• AUAGGG = -0.534
• GUCACG = -0.35
• CUCGCU = -0.0213
• CCAGCA = -0.507
• UCGCAA = -0.351
• GCUGUG = -0.283
• UGGACU = -0.517
• GCCAAU = -0.423
• UUGAAG = -0.189
• UCAUUA = -0.996
• UACGCU = -0.169
• AAUGUU = -0.478
• UGAUUU = 0.198
